# test_summary: Metabolic stability in human liver microsomes
# Assay type: in vitro ADME
# condition_parameters: 10 μM, 1 mg/mL microsomes, 37° C., 2 hrs
property_name: Metabolic stability in liver microsomes % Parent after 2 hrs, Human (%)
One number for each entry, in %.

Check out these entries, answers already filled in.
molecule: COP(=O)(C1=C(C(=O)NCc2ccncc2)N=C2C=CC(Cl)=CC21)c1cc(C)cc(F)c1 (centres unmarked)
test_result: 3

molecule: COP(=O)(c1cc(C)cc(C)c1)c1c(C(=O)NCc2cc[n+]([O-])cc2)[nH]c2ccc(Cl)c(F)c12 (centres unmarked)
test_result: 94

Report Metabolic stability in liver microsomes % Parent after 2 hrs, Human for every entry below.
1. COP(=O)(C1=C(C(=O)NCc2ccncc2)N=C2C=CC(Cl)=C(F)C21)c1cc(C)cc(C)c1 (centres unmarked)
2. COP(=O)(c1cc(C)cc(C)c1)c1c(C(=O)NCc2cc[n+]([O-])cc2)[nH]c2ccc(Cl)cc12 (centres unmarked)
3. COP(=O)(c1cc(C)cc(F)c1)c1c(C(=O)NCc2cc[n+]([O-])cc2)[nH]c2ccc(Cl)cc12 (centres unmarked)

Ans.
1. 15
2. 76
3. 85

---

# test_summary: PK and oral bioavailability in the rat
# Type: in vivo, Sprague-Dawley rats
# condition_parameters: Sprague-Dawley, plasma, PO, 5.0 mg/kg, PEG400
property_name: AUC(0-inf) (ng·h/mL)
One number for each entry, in ng·h/mL.

Qu. Endpoint output: AUC(0-inf) of COP(=O)(c1cc(C)cc(C)c1)c1c(C(=O)NCc2cc[n+]([O-])cc2)[nH]c2ccc(Cl)cc12 (stereo not shown) . Value?
Ans. 151

---

# Tested on: HIV mutant strain Y181C
# test_summary: Cell-based assay using BH-10 cells, Y181C mutant
# condition_parameters: Human immunodeficiency virus 1, read-out: EC50 Y181C, BH-10 cells, Y181C mutant
pEC50: −log10 of the molar value.
Please note: yes (1) applies when pEC50 is 8 or greater, and no (0) applies otherwise.

compound: COP(=O)(c1cc(C)cc(C)c1)c1c(C(=O)NCc2ccccc2C(F)(F)F)[nH]c2ccc(Cl)cc12 (centres unmarked)
test_target: HIV mutant strain Y181C
class_label: no (0)
--
compound: CCOP(=O)(c1cccc(C)c1)c1c(C(N)=O)[nH]c2ccc(Cl)cc12 (centres unmarked)
test_target: HIV mutant strain Y181C
class_label: no (0)
--
compound: COc1cccc(P(=O)(OC)c2c(C(N)=O)[nH]c3ccc(Cl)cc23)c1 (centres unmarked)
test_target: HIV mutant strain Y181C
class_label: no (0)
--
compound: CCOP(=O)(c1ccc(F)cc1)c1c(C(N)=O)[nH]c2ccc(Cl)cc12 (centres unmarked)
test_target: HIV mutant strain Y181C
class_label: no (0)
--
compound: COP(=O)(c1ccccc1)c1c(C(N)=O)[nH]c2ccccc12 (centres unmarked)
test_target: HIV mutant strain Y181C
class_label: no (0)

Qu. Reported pEC50 reaches at least 8 for COP(=O)(c1cc(F)cc(F)c1)c1c(C(=O)NCC#N)[nH]c2ccc(Cl)cc12 (centres unmarked) [Compound 59a] ?
Ans. no (0)

Qu. How about this compound: COP(=O)(c1cc(F)cc(F)c1)c1c(C(=O)NCCC#N)[nH]c2ccc(Cl)cc12 (centres unmarked) [Compound 59b]
Ans. no (0)

Qu. How about this compound: COP(=O)(c1cccc(C(F)(F)F)c1)c1c(C(N)=O)[nH]c2ccc(Cl)cc12 (centres unmarked)
Ans. yes (1)

Qu. How about this compound: CN(C)P(=O)(c1ccccc1)c1c(C(N)=O)[nH]c2ccc(Cl)cc12 (centres unmarked) [Compound 31a]
Ans. no (0)

Qu. How about this compound: COP(=O)(c1cc(C)cc(C)c1)c1c(C(N)=O)[nH]c2ccc(Cl)cc12 (centres unmarked)
Ans. yes (1)

Qu. How about this compound: CCOP(=O)(c1cc(F)cc(F)c1)c1c(C(N)=O)[nH]c2ccc(Cl)cc12 (centres unmarked)
Ans. no (0)

Qu. How about this compound: COP(=S)(c1ccccc1)c1c(C(N)=O)[nH]c2ccc(Cl)cc12 (centres unmarked) [Compound 25b]
Ans. no (0)

---

# Test system: HIV BH-10 WT
# test_summary: Cell-based assay using BH-10 cells, wild type
# condition_parameters: Human immunodeficiency virus 1, read-out: EC50 WT///B, BH-10 cells, wild type
For each of the compounds below, state its pEC50.
One number for each entry, as −log10 of the molar value.

compound: COP(=O)(c1cc(F)cc(F)c1)c1c(C(=O)NCCC#N)[nH]c2ccc(Cl)cc12 (stereo not shown) [Compound 59b]
pEC50: 8.46

Report pEC50 for every entry below.
1. CCOP(=O)(c1ccccc1Cl)c1c(C(N)=O)[nH]c2ccc(Cl)cc12 (stereo not shown) [Compound 6ai]
2. CCOP(=O)(c1ccccc1)c1c(C(N)=O)[nH]c2ccc(Cl)cc12 (stereo not shown) [Compound 6a]

Ans.
1. 8.92
2. 8.92

Qu. Endpoint output: pEC50 of COP(=O)(c1ccccc1)c1c(C(=O)NCc2ccncc2)[nH]c2ccc(Cl)cc12 (stereo not shown) [Compound 18ar] . Value?
Ans. 9.00

---

# test_summary: PK and oral bioavailability in the dog
# Type: in vivo, Beagle dogs
# condition_parameters: Beagle, plasma, PO, 5.0 mg/kg, PEG400, read-out: T½ (converted)
property_name: half-life (h)
Give bare numbers, in h.

Qu. Endpoint output: half-life of COP(=O)(C1=C(C(=O)NCc2ccncc2)N=C2C=CC(Cl)=CC21)c1cc(C)cc(C)c1 (stereo not shown) . Value?
Ans. 2.8

---

# Tested on: HIV mutant strain Y181C
# test_summary: Cell-based assay using BH-10 cells, Y181C mutant
# condition_parameters: Human immunodeficiency virus 1, read-out: EC50 Y181C, BH-10 cells, Y181C mutant
For each of the compounds below, state its log10 of EC50.
Please note: log10 values; quantity EC50; unit nM.

compound: CP(=O)(c1ccccc1)c1c(C(N)=O)[nH]c2ccc(Cl)cc12 (centres unmarked) [Compound 29a]
test_result: 2.42

Report log10 of EC50 for every entry below.
1. COP(=O)(c1cccc(CO)c1)c1c(C(N)=O)[nH]c2ccc(Cl)cc12 (centres unmarked)
2. COP(=O)(c1cc(C)cc(C)c1)c1c(C(=O)NCc2cccnc2)[nH]c2ccc(Cl)c(F)c12 (centres unmarked)
3. COP(=O)(c1ccc(C)c(C)c1)c1c(C(N)=O)[nH]c2ccc(Cl)cc12 (centres unmarked)
4. COP(=O)(c1cc(C)cc(F)c1)c1c(C(=O)NCc2ccncc2)[nH]c2ccc(Cl)cc12 (centres unmarked) [Compound 18d]
5. COP(=O)(c1cc(F)cc(F)c1)c1c(C(=O)NCc2ccccc2F)[nH]c2ccc(Cl)cc12 (centres unmarked)
6. COP(=O)(c1cc(F)cc(Cl)c1)c1c(C(N)=O)[nH]c2ccc(Cl)cc12 (centres unmarked)
7. COP(=O)(c1cccc(C(C)C)c1)c1c(C(N)=O)[nH]c2ccc(Cl)cc12 (centres unmarked)
8. CCOP(=O)(c1cccc(Cl)c1)c1c(C(N)=O)[nH]c2ccc(Cl)cc12 (centres unmarked)

Ans.
1.92
2.48
1.05
0.97
1.58
1.17
0.94
1.22

Report log10 of EC50 for every entry below.
1. CCOP(=O)(c1cccs1)c1c(C(N)=O)[nH]c2ccc(Cl)cc12 (centres unmarked)
2. CCc1cc(C)cc(P(=O)(OC)c2c(C(=O)NCc3ccc[n+]([O-])c3)[nH]c3ccc(Cl)cc23)c1 (centres unmarked) [Compound 22h]
3. COP(=O)(c1cccc(/C=C/C#N)c1)c1c(C(N)=O)[nH]c2ccc(Cl)cc12 (centres unmarked) [Compound 33a]

Ans.
1.72
0.76
0.30

Report log10 of EC50 for every entry below.
1. COP(=O)(c1cc(C)cc(C)c1)c1c(C(N)=O)[nH]c2ccc(Cl)c(F)c12 (centres unmarked)
2. COP(=O)(c1cc(Cl)cc(Cl)c1)c1c(C(N)=O)[nH]c2ccc(Cl)cc12 (centres unmarked)
3. COP(=O)(c1cc(C)cc(C#N)c1)c1c(C(N)=O)[nH]c2ccc(Cl)cc12 (centres unmarked)
4. COP(=O)(c1cccc(C(C)(C)C)c1)c1c(C(N)=O)[nH]c2ccc(Cl)cc12 (centres unmarked)
5. COP(=O)(c1cccc(Cl)c1)c1c(C(N)=O)[nH]c2ccc(Cl)cc12 (centres unmarked)
6. COP(=O)(c1ccccc1)c1c(C(=O)NCc2ccccc2F)[nH]c2ccc(Cl)cc12 (centres unmarked)

Ans.
1: 0.93; 2: 0.72; 3: 0.68; 4: 1.29; 5: 0.94; 6: 1.53

Report log10 of EC50 for every entry below.
1. COP(=O)(c1ccccc1)c1c(C(=O)N[C@H](C(N)=O)c2ccccc2)[nH]c2ccc(Cl)cc12 (some centres unmarked)
2. COP(=O)(c1cc(C(F)(F)F)cc(C(F)(F)F)c1)c1c(C(N)=O)[nH]c2ccc(Cl)cc12 (centres unmarked)
3. COP(=O)(c1ccccc1)c1c(C(=O)NCc2ccco2)[nH]c2ccc(Cl)cc12 (centres unmarked) [Compound 18at]
4. COP(=O)(c1ccsc1)c1c(C(N)=O)[nH]c2ccc(Cl)cc12 (centres unmarked) [Compound 52a]
5. COP(=O)(c1cc(F)cc(F)c1)c1c(C(=O)NCc2ccncc2)[nH]c2ccc(Cl)cc12 (centres unmarked) [Compound 18e]
6. COP(=O)(c1cc(F)cc(F)c1)c1c(C(=O)NCc2cncn2C)[nH]c2ccc(Cl)cc12 (centres unmarked)

Ans.
1: 2.46; 2: 1.83; 3: 0.18; 4: 0.18; 5: 1.17; 6: 1.02
